# tested-on: T1, PTPRG, endogenous in H929 multiple myeloma cells (human, UniProt P23470 20-1445)
# T1 construct: Native protein on H929 cells (flow cytometry, siRNA knockdown) and in H929 lysates (IP/MS); also called phosphatase receptor type γ
# measurement-description: flow cytometry, H929 + NT Green siRNA; None 416
Recorded mAb binding (MFI) values for a group of binders are listed next.
Number, no unit, nothing else.

Example entries begin here.
{"binder": "TH9-0022 (antibody, human IgG1, kappa, L234A L235A, V domains shown, also called TH9-022; negative control) VH: QSLEESGGRLVTPGTPLTLTCTVSGFSLSSYAMNWVRQAPGKGLEWIGIINSYGSTYYASWAKGRFTISKTSTTVDLKITSPTTEDTATYFCARVTYDSYGYGYAPYGMDLWGPGTLVTVSS VL: LVMTQTPSSTSNAVGGTVTIKCQASQSIGNVLAWYQQKPGQPPKLLIYAASTLASGVPSRVGGSRSGTEYTLTISGVQREDAATYYCLGSDSDSDIAFGGGTELEILR", "mAb binding (MFI)": 483}
{"binder": "HW-70 chimeric rabbit-human IgG1 LA/LA/PG (antibody, V domains shown, Fc-silenced (L234A/L235A/P329G) IgG1, lambda; Alexa Fluor 647-labeled in single-step flow cytometry; Cluster C-1) VH: QSLEESGGRLVTPGTPLTLTCTVSGFSLSSNAMSWVRQAPGKGLEWIGTIDGYGYTYYASWAKGRFTVSKTSTTVDLKITSPTTEDTATYFCAREIYLGSNFWGPGTLVTISS VL: SFVLTQPASVQVNLGQTVSLTCTADTLSRRYASWYQQKPGQAPVLLIYRDTSRPSGVPDRFSGSSSGNTATLTISGAQAGDEADYYCATADGSGSSYQFVFGGGTQLTVTG", "mAb binding (MFI)": 12600}

Continue with the binder presented below.
Exercise: // fetch mAb binding (MFI) given entry HW-1 chimeric rabbit-human IgG1 LA/LA/PG (antibody, V domains shown, Fc-silenced (L234A/L235A/P329G) IgG1, lambda; Alexa Fluor 647-labeled in single-step flow cytometry; Prototype of cluster C-1) VH: QSLEESGGGLFKPTDTLTLTCTASGFSLGSSYAISWVRQAPGKELEWIGTIDSGRAYYARWAKSRSTITRNTNENTVTLKMTSLTAADTATYFCARDLIPTYSQDIWGPGTLVTISS VL: SFVLTQPASVQVNLGQTVSLTCTADTLSRRYASWYQQKPGQAPVLLIYRDTSRPSGVPDRFSGSSSGNTATLTISGAQAGDEADYYCATSDGSGNSYQYVFGGGTQLTVTS
Key: 16000
